This collection of values is drawn from paper PMC3425833.

- STUDY SYSTEM: Jack bean urease (Canavalia ensiformis, UniProt P07374)
- Sequence (P07374 whole entry, looked up): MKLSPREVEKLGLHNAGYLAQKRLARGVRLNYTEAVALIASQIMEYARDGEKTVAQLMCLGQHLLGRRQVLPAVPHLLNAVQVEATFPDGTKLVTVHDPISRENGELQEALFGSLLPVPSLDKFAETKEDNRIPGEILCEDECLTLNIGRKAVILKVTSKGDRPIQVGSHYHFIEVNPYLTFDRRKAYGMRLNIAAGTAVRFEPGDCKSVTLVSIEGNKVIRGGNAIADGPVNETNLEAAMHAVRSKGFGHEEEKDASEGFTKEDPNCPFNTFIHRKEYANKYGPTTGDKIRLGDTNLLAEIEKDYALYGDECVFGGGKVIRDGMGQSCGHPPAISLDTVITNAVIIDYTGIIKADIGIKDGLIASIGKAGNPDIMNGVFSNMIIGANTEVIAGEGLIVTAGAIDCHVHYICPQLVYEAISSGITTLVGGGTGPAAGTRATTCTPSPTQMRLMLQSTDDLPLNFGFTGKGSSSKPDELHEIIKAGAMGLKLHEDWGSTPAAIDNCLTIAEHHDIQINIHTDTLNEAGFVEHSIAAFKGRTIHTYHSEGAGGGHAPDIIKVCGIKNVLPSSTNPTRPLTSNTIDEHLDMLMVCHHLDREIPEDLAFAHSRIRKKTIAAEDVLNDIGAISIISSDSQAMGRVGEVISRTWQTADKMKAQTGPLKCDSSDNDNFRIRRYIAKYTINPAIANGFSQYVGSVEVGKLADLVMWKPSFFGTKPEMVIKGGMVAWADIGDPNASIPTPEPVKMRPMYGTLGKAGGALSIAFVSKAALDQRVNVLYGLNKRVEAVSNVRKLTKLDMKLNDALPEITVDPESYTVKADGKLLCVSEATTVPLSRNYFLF
- PROCEDURE DETAILS: biochemical
- Format: biochemical
RECORDED ENDPOINT: pIC50
Reminder that pIC50 means the negative base-10 logarithm of the concentration expressed in mol/L.

COc1cccc(CCc2n[nH]c(=S)o2)c1 [Compound 4o] : 4.82
S=c1[nH]nc(Cc2ccc(Cl)c(Cl)c2)o1 [Compound 4e] : 4.95

Now for a further compound.
Q. Look up pIC50 for this compound: COc1ccc(-c2n[nH]c(=S)o2)c(OC)c1OC [Compound 4a]
A. 5.24

###

- STUDY SYSTEM: Jack bean urease (Canavalia ensiformis)
- PROCEDURE DETAILS: biochemical
- Assay type: biochemical
Below, each entry is listed alongside its reported IC50.

Fc1ccccc1Cc1n[nH]c(=S)o1 [Compound 4f] : 3.27 µM
COc1ccccc1CCc1n[nH]c(=S)o1 [Compound 4i] : 6.22 µM
COc1ccc(Cc2n[nH]c(=S)o2)cc1 [Compound 4l] : 5.83 µM

Then there is this molecule:
Q. // lookup IC50 for COc1cccc(Cc2n[nH]c(=S)o2)c1 [Compound 4n]
A. 12.2 µM
